# target under test: T1, cMetECDHis (human, UniProt P08581 25-932, limits assumed, biotinylated in the cross-block ELISA of Example 17)
# T1 construct: Expressed in HEK-293F cells; also called soluble cMetECDHis; biotinylated cMetECDHis
# assay method text: cross-block ELISA; competitor 035
reported endpoint: residual binding, % of no competitor (%)

>>> reported_measurement("IgG1-1016-022 (antibody, V domains shown, also called TH1016-022; PC1016-022) VH: QVQLVESGGGVVQPGRSLRLSCAASGFTFSSYAMHWVRQAPGKGLEWVAVISYDGSNKYYADSVKGRFTISRDNSKNTLYLQMNSLRAEDTAVYYCARELLWFGELWGYFDLWGRGTLVTVSS VL: DIQMTQSPSSVSASVGDRVTITCRASQGISSWLAWYQHKPGKAPKLLIYAASSLQSGVPSRFSGSGSGTDFTLTISSLQPEDFATYYCQEASSFTWTFGQGTKVEIK")
92.4
>>> reported_measurement("IgG1-1016-058 (antibody, V domains shown, also called IgG1-058; TH1016-058) VH: EVQLVESGGGLVKPGGSLKLSCAASGFTFSDYYMYWVRQTPEKRLEWVATISDDGSYTYYPDSVKGRFTISRDNAKNNLYLQMSSLKSEDTAMYYCAREGLYYYGSGSYYNQDYWGQGTLVTVSS VL: AIQLTQSPSSLSASVGDRVTITCRASQGLSSALAWYRQKPGKAPKLLIYDASSLESGVPSRFSGSGSGTDFTLTISSLQPEDFATYYCQQFTSYPQITFGQGTRLEIK")
90.1
>>> reported_measurement("anti-c-Met HuMab 005 (IgG1) (antibody, V domains shown, also called TH1016-005; PC1016-005) VH: QVQLVQSGAEVKKPGSSVKVSCKASGGTFSSYGFGWVRQAPGQGLEWMGRISPILGIANYAQMFQGRVTITADKSTSTAYMELSSLRSEDTAVYYCARDVGYDWPDTFDIWGQGTMVIVSS VL: DIQMTQSPSSLSASVGDRVTITCRASQGISSWLAWYQQKPEKAPKSLIYAASSLQSGVPSRFSGGGSGTDFTLTISSLQPEDFATYYCQQYNSFPPTFGQGTKVEIK")
84.9
>>> reported_measurement("IgG1-1016-069 (antibody, V domains shown, also called clone 069; TH1016-069) VH: QVQLVQSGAEVKKPGASVKVSCETSGYTFTSYGISWVRQAPGHGLEWMGWISAYNGYTNYAQKLQGRVTMTTDTSTSTAYMELRSLRSDDTAVYYCARDLRGTNYFDYWGQGTLVTVSS VL: DIQMTQSPSSVSASVGDRVTITCRASQGISNWLAWFQHKPGKAPKLLIYAASSLLSGVPSRFSGSGSGTDFTLTISSLQPEDFATYYCQQANSFPITFGQGTRLEIK")
91.7
>>> reported_measurement("anti-c-Met HuMab 181 (IgG1) (antibody, V domains shown, also called TH1016-181; PC1016-181) VH: QVQLVQSGAEVKKPGASVKVSCKASGYTFTSYGISWVRQAPGQGLEWMGWISTYNGYTNYAQKLQGRVTMTTDTSTSTAYMELRSLRSDDTAVYYCARDLRGTAYFDYWGQGTLVTVSS VL: DIQMTQSPSSVSASVGDRVTITCRASQGISNWLAWYQHKPGKAPKLLIYAASSLLSGVPSRFSGSGSGTDFTLTISSLQPEDFATYYCQQANSFPITFGQGTRLEIK")
96
